Some binders, each annotated with its measured pKd.
target: T1, recombinant human CFD, His-tagged (human, UniProt P00746 26-253); test: SPR MX96
T1 construct: also called rhCFD-His
T1 sequence (P00746 26-253 limits assumed): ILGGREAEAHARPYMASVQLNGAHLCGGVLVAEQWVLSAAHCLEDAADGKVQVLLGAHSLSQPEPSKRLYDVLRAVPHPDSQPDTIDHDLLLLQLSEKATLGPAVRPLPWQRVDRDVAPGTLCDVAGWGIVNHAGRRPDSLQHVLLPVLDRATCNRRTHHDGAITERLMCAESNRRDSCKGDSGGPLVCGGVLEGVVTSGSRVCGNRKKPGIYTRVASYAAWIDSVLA
Recall that pKd is obtained by taking minus log10 of the concentration measured in molar.

KCD019 (antibody, V domains shown) VH: QVQLQQSGAELARPGASVKMSCKASGYTFATYTIHWVKQRPGQGLEWIGYLNLRNDYTHYNQKFRDKAALTADKSSSTAYMQLSSLTSEDSAVYNCAFRLGNDRQGWYFDVWGAGTTVTVSS VL: DIVMTQAHRFMSTSVGDRVIISCKASQDVGTAVAWYQQTPGQSPKILIYWTSTRHTGVPDRFTGSRSGTDFTLTISNVQSEDLADYFCQQYTTYPLTFGGGTKLEIK ... 7.21
KCD114 (antibody, V domains shown) VH: EVQLQQSGPELVKPGASVKISCKASGYSFTAYYMNWVKQSPEKSLEWIGDINPSTGGTTYNQNFKAKATLTVDKSSSTAYMHLKSLTSEDSAVYYCATTYYSGNSYVGFAYWGQGTLVTVSA VL: DIVMTQSHKFMSTSVGDRVSITCKASQDVSTAVAWYQQKPGQSPKLLIFWASTRHTGVPDRFTGSGSGTDYTLTISSVQAEDLALYYCQQHYSTPWTFGGGTKLEIK ... 8.42
KCD013 (antibody, V domains shown) VH: EVQLQQSGAELVKPGASVKLSCTASGFKIKDTYMHWVKERPDQGLEWIGRIDPANGNTKYDPKFQGKATITADTSSNTAYLQLSSLTSEDTAVYYCANAMDYWGQGTSVTVSS VL: QIILTQSPAIMSASPGEKVTMTCSASSSVSNMYWYQQKPGSSPRLLIYDTSNLASGVPVRFSGSGSGASYSLTISRMEAEDAATYYCQQWSSYPWTFGGGTKLEIK ... 7.96
KCD023 (antibody, V domains shown, chimeric) VH: EVLLQQSGPELVKPGASVKIPCKASGYTFTDYNIDWVKQSHGKSLEWIGDINPNNGGINYNQKFKGKATLTVDKSSSTAYMELRSLTSEDTAVYYCGTGDYAYWGQGTLVTVSA VL: QIVLTQSPAFMSASPGEKVTLTCSASSSVSSSYLYWYQQKPGSSPKLWIYSTSNLASGVPGRFSGSGSGTSYSLTISSMEAEDAASYFCHQWTSYPPTFGAGTKLELK ... 8.39

// field: pKd; key: KCD044 (antibody, V domains shown, chimeric) VH: EVQLQQSGAELVKPGASVRLSCTASGFNIKHTYMHWVSQRPERGLEWIGKIDPANGNTKYDPKFQGKATITADTSSNTVYLQLSSLTSEDTAVYYCLNAMEYWGQGTSVTVSS VL: QSVLTQSPAIMSASPGEKVTMTCSANSSVSDMYWYQQRPGSSPRLLIYDTSNLASGVPVRFSGSGSGTSYSLTISRMEAEDAATYYCQQWSTYPWTFGGGTKLEIK ; value = 8.74

// field: pKd; key: KCD225 (antibody, V domains shown) VH: QVQLQQSGPELVKPGASVKISCKASGYTFTDYYINWMKQRPGQGLEWIGWIFPGSDSTYYNEKFKGKATLTVDKSSSTAYMLLSSLTSEDSAVYFCARLGYYSHSYYAMDYWGQGTSVTVSS VL: DIQMTQSPASLSVSTGETVTITCRASENIYSNLAWFQQKQGKSPQLLVYAATNLADGVPSRFSGSGSGTQYSLKITSLQSEDFGSYYCQHFWGTPLTFGAGTKLDLK ; value = 8.30

// field: pKd; key: KCD038 (antibody, V domains shown) VH: EVQLQQSGPELVKPGTSMKISCKASGYSFADYTMNWVKQSHGKSLEWIGLINPYNGGTSYNQKFMGKATLTVDKSSSTAYMELLSLTSEDSAVYYCARWGTYSHNYDYAMDYWGQGTSVTVSS VL: DVVMTQTPLSLPVSLGDQASISCRSSQSLVHSNGNTYLYWYFQKPGQSPKFLIYKVSNRFSGISDRFSGSGSGTDFTLKISRVEAEDLGVYFCSQSTHVPPFTFGSGTKLEIK ; value = 7.32
